# System: NCI-H322M
# measurement-protocol: Growth inhibition of human NCI-H322M cells measured after 48 hrs by SRB assay
# Assay type: functional
Checkbox rule: GI50 lower than 1000 nM = T; GI50 not lower than 1000 nM = F.

Query block: Identify whether the molecule C[C@]12CC[C@H](O[C@@H]3O[C@H](CO)[C@@H](O)[C@H](O)[C@H]3O)C=C1CC[C@@H]1[C@@H]2[C@@H](O)C[C@]2(C)[C@@H](c3ccc(=O)oc3)CC[C@]12O records GI50 below 1000 nM.
Result block: T

Query block: hey, is GI50 for C[C@]12CC[C@H]3[C@@H](CC[C@H]4C[C@@H](O)CC[C@@]43C=O)[C@@]1(O)CC[C@@H]2c1ccc(=O)oc1 lower than 1000 nM or not?
Result block: F

Query block: Regarding CCO[C@H]1C=C2CC[C@@H]3[C@H]([C@@H](O)C[C@]4(C)[C@@H](c5ccc(=O)oc5)CC[C@]34O)[C@@]2(C)CC1 , kindly confirm whether its GI50 is beneath 1000 nM.
Result block: F

Query block: Answer whether the molecule CCO[C@@H]1C=C2CC[C@@H]3[C@H]([C@@H](O)C[C@]4(C)[C@@H](c5ccc(=O)oc5)CC[C@]34O)[C@@]2(C)CC1 has GI50 strictly less than 1000 nM
Result block: T

Query block: GI50 strictly < 1000 nM for this molecule? C[C@]12CC[C@H](O)C=C1CC[C@@H]1[C@@H]2[C@@H](O)C[C@]2(C)[C@@H](c3ccc(=O)oc3)CC[C@]12O
Result block: F

Query block: A record lists C[C@]12C[C@H](O)[C@H]3[C@@H](CCC4=C[C@@H](O[C@@H]5O[C@H](CO)[C@@H](O)[C@H](O)[C@H]5O)CC[C@@]43CO)[C@@]1(O)CC[C@@H]2c1ccc(=O)oc1 . Is its GI50 below 1000 nM?
Result block: T

Query block: I'd appreciate it if you could check whether CC(=O)OC[C@H]1O[C@@H](O[C@@H]2C=C3CC[C@@H]4[C@H](C(=O)C[C@]5(C)[C@@H](c6ccc(=O)oc6)CC[C@]45O)[C@@]3(C)CC2)[C@H](OC(C)=O)[C@@H](OC(C)=O)[C@@H]1OC(C)=O has GI50 smaller than 1000 nM.
Result block: F

Query block: Consider the molecule C[C@]12CC[C@@H](O)C=C1CC[C@@H]1[C@@H]2[C@@H](O)C[C@]2(C)[C@@H](c3ccc(=O)oc3)CC[C@]12O . Is its GI50 strictly less than 1000 nM?
Result block: F

Query block: Please let me know if CC(=O)OC[C@H]1O[C@@H](O[C@@H]2C=C3CC[C@@H]4[C@H]([C@@H](O)C[C@]5(C)[C@@H](c6ccc(=O)oc6)CC[C@]45O)[C@@]3(C)CC2)[C@H](OC(C)=O)[C@@H](OC(C)=O)[C@@H]1OC(C)=O shows GI50 below 1000 nM.
Result block: T
